Reference source: patent US20170296650A1

Reported Inhibition of binding (%) values follow for various binders
molecular target: T1, hCMV glycoprotein B (gB; HEK293T transfectant) (hCMV, UniProt P06473 32-906); experiment: cell competition; competitor 7H3-biotin
T1 construct: whole, on cells; in the functional rows it stands for gB on virions or transduced cells of the strain or isolate named in the readout
T1 sequence (P06473 32-906 limits assumed): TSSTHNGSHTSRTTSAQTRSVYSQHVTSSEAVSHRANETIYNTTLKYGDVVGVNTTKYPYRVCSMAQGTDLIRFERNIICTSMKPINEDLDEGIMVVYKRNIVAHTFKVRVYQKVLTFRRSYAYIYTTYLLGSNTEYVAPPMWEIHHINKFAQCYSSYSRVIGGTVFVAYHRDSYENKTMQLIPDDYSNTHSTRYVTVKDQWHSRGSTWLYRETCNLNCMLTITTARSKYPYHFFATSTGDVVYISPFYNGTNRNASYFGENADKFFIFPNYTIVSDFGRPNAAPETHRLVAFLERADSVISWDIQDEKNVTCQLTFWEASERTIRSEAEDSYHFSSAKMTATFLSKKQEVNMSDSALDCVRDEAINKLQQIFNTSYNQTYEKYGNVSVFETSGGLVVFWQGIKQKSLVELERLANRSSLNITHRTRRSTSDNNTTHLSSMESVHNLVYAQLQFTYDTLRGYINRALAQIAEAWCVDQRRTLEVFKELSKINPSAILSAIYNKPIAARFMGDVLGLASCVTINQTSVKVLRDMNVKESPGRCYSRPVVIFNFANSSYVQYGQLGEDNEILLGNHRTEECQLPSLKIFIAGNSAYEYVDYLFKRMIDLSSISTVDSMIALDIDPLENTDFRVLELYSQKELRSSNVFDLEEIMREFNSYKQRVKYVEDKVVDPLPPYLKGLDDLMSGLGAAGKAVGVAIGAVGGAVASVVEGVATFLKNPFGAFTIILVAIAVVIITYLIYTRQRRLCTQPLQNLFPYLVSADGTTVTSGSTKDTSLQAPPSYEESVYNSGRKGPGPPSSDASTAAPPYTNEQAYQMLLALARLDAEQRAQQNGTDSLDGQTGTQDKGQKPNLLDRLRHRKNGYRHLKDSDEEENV
Please give a number only; it is taken to be in %.

Sample records with Inhibition of binding (%):
1) 10C6 (antibody, V domains shown, human IgG; also called 10C6-biotin; 1006) VH: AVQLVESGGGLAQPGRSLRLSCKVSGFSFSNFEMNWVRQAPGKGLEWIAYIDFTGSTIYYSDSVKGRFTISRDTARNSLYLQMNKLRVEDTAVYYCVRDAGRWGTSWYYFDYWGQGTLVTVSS VL: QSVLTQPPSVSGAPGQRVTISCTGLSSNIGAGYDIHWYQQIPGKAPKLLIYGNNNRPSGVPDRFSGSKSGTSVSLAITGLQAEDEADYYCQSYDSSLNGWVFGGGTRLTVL    0
2) 7H3 (antibody, V domains shown, fully human IgG1 with unaltered Fc; also called 7H3-biotin; LJP538) VH: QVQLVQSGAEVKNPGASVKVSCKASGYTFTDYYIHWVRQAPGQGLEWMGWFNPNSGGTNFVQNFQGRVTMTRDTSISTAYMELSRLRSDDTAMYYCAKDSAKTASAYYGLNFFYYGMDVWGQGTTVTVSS VL: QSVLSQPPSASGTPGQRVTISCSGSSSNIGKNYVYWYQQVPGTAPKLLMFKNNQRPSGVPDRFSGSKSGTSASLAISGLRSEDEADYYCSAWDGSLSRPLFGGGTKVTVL    100

Proceeding to the next binder to report its Inhibition of binding (%).
Ask: What measured Inhibition of binding (%) goes with 4H9 (antibody, V domains shown, human IgG; also called 4H9-biotin; 4H9.6) VH: AVQLVESGGGLVRPGGSLRLSCAASGFTFSSHEMHWVRQAPGKGLEWLSYIDFTGSIIYYADSVRGRFTISRDNTKKSLFLQMNSLRDEDTALYYCARDGGRWGTSWYYFDYWGQGVLVTVSS VL: QSVLTQPPSVSGAPGQRVTITCTGSSSNFGAGYDGHWYQQLPGTAPKLLIYGSNRPSGVPDRFSGSKSGTSVSLAITGLQADDEADYYCQSYDSSLSAWVFGGGTKLTVL ?
Reply: 0
